Molecular target: T1, SHR-SCR complex (SHR 59-531 with SCR 275-653) (Arabidopsis thaliana, UniProt Q9SZF7 59-531; Q9M384 275-653)
T1 sequence (looked up) 1: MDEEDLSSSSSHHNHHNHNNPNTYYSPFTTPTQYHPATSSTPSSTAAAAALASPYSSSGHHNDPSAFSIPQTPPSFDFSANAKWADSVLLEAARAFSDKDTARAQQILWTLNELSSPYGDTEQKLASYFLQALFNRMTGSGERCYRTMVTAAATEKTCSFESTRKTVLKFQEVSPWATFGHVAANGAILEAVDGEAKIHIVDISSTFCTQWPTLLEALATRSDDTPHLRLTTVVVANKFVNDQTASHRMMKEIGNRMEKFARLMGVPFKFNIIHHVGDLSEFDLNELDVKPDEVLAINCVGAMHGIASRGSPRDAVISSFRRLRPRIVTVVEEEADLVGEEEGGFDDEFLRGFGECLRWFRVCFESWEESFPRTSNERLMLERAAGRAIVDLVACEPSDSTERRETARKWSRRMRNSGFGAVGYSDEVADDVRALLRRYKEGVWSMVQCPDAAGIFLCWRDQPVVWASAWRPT
T1 sequence (looked up) 2: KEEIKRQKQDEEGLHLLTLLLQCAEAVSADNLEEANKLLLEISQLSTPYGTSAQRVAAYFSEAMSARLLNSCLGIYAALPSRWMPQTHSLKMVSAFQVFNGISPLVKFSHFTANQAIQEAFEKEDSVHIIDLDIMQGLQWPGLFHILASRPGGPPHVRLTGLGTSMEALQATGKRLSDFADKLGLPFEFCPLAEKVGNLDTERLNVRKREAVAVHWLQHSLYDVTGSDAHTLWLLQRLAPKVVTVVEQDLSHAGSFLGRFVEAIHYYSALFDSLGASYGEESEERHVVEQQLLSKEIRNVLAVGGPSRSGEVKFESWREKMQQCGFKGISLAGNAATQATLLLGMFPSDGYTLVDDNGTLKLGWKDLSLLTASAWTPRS
Experiment: ITC
# key: entry, value: pKd
Worth noting: pKd values are minus log10 of concentrations stated in mol/L.

JKD/IDD10 ZF3-ZF4 (residues 155-224) (domain or fragment, Arabidopsis thaliana, UniProt Q700D2 155-224, looked up) GEKKWKCEKCSKKYAVQSDWKAHAKTCGTREYKCDCGTLFSRKDSFITHRAFCDALTEEGARMSSLSNNN	6.91

Now, please, on to the next binder.
The binder listed as MGP/IDD3 ZF3-ZF4 (residues 143-221) (domain or fragment, Arabidopsis thaliana, UniProt Q9ZWA6 143-221, looked up) EKKWKCEKCAKRYAVQSDWKAHSKTCGTREYRCDCGTIFSRRDSFITHRAFCDALAEETARLNAASHLKSFAATAGSNL has a reported pKd of 7.45
